Origin of measurements: patent US10059722B2

Tested on: non-replicating M. tuberculosis
Test details: microbe, parasite or virus in culture
Type: cell-based, Mycobacterium tuberculosis
Settings: Mycobacterium tuberculosis, read-out: MIC NR at 0.01 Inoc. and 3 Day Exposure to Drug, 11 Day Outgrowth; Table 8; ranges from multiple assays
Values of MIC strictly less than 0.8 µg/mL map to T, and values of at least 0.8 µg/mL map to F.

// known answers, use as guide
CC1=C(C(=O)OCc2ccccc2)N2C(=O)[C@@H](NC(=O)COc3ccccc3)[C@H]2SC1 | F
C=CC1=C(C(=O)O)N2C(=O)[C@@H](NC(=O)/C(=N\O)c3csc(N)n3)[C@H]2SC1 | F
COc1ccc(OCC(=O)N[C@@H]2C(=O)N3C(C(=O)OCc4ccccc4)=C(C)CS[C@H]23)cc1 | F
C#CCOC(=O)C1=C(C)CS[C@@H]2[C@H](N(CC#C)CC#C)C(=O)N12 | F

Let's switch to this molecule now.
State whether 0.8 µg/mL exceeds MIC recorded for CCCCOC(=O)C1C(C)=CS[C@@H]2[C@H](NC(=O)COc3ccccc3)C(=O)N12 (some centres unmarked) . T

---

System: non-replicating M. tuberculosis
Test details: microbe, parasite or virus in culture
Format: cell-based, Mycobacterium tuberculosis
Settings: Mycobacterium tuberculosis, read-out: MIC NR at 0.01 Inoc. and 3 Day Exposure to Drug, 11 Day Outgrowth; Table 8; ranges from multiple assays
Experimental readout: MIC (µg/mL)
# output: bare number, implied unit µg/mL

Answered examples (3):
CCCOC(=O)C1=C(C)CS[C@@H]2[C@H](NC(=O)CCc3ccc(OC)cc3)C(=O)N12 [Compound 99] | 0.2
CC1=C(C(=O)OCc2ccccc2)N2C(=O)[C@@H](NC(=O)COc3ccc(Cl)cc3)[C@H]2SC1 [Compound 102] | 1.56
CC1=C(C(=O)OCc2ccccc2)N2C(=O)[C@@H](NC(=O)CCc3ccc(Cl)cc3)[C@H]2SC1 [Compound 100] | 0.78

Here is another compound to look at.
Which measured MIC value corresponds to C#CCOC(=O)N[C@@H]1C(=O)N2C(C(=O)OCC#C)=C(C)CS[C@H]12 [Compound 105] ? 12.5

---

Test system: HepG2 cells
Assay type: cell-based
Settings: human, 2 day
Below, each entry is listed alongside its reported HepG2 Toxicity LD50.

CC1=C(C(=O)OCc2ccccc2)N2C(=O)[C@@H](NC(=O)CCc3ccc(Cl)cc3)[C@H]2SC1 | 50 µg/mL
CC1=C(C(=O)OCc2ccccc2)N2C(=O)[C@@H](NC(=O)COc3ccc(Cl)cc3)[C@H]2SC1 | >100 µg/mL
COc1ccc(OCC(=O)N[C@@H]2C(=O)N3C(C(=O)OCc4ccccc4)=C(C)CS[C@H]23)cc1 | >100 µg/mL
C#CCOC(=O)N[C@@H]1C(=O)N2C(C(=O)OCC#C)=C(C)CS[C@H]12 | >100 µg/mL
CCCOC(=O)C1=C(C)CS[C@@H]2[C@H](NC(=O)OCc3ccccc3)C(=O)N12 | 100 µg/mL
CC1=C(C(=O)OCc2ccccc2)N2C(=O)[C@@H](NC(=O)COc3ccccc3)[C@H]2SC1 | >100 µg/mL

Endpoint output: HepG2 Toxicity LD50 of CCCOC(=O)C1=C(C)CS[C@@H]2[C@H](NC(=O)CCc3ccc(OC)cc3)C(=O)N12 . Value? >100 µg/mL

What does the record list as HepG2 Toxicity LD50 for C#CCOC(=O)C1=C(C)CS[C@@H]2[C@H](N(CC#C)CC#C)C(=O)N12 ? 100 µg/mL

Any idea what its HepG2 Toxicity LD50 is? The compound is COc1ccc(CCC(=O)N[C@@H]2C(=O)N3C(C(=O)OCc4ccccc4)=C(C)CS[C@H]23)cc1 >100 µg/mL
